Tested on: KB
assay-notes: Cytotoxicity against human KB cells after 48 hrs by SRB assay
Type: functional
Where a name gives a salt, the structure may show the parent alone.
value-kind: GI50 (nM)
Numbers only here, please. The scale is nM.

# input Given the entry "COc1cc(/C=C/C(=O)N2CCOCC2)ccc1OCCCCOc1cc2c(cc1OC)C(=O)N1CCC[C@H]1C=N2" , report its measured GI50.
# output 130

# input Given the entry "COc1cc(/C=C/C(=O)N2CCN(C(=O)/C=C/c3ccc(OCCCOc4cc5c(cc4OC)C(=O)N4CCC[C@H]4C=N5)c(OC)c3)CC2)ccc1OCCCOc1cc2c(cc1OC)C(=O)N1CCC[C@H]1C=N2" , report its measured GI50.
# output 140

# input Given the entry "COc1cc(/C=C/C(=O)N2CCN(C(=O)/C=C/c3ccc(OCCCCCOc4cc5c(cc4OC)C(=O)N4CCC[C@H]4C=N5)c(OC)c3)CC2)ccc1OCCCCCOc1cc2c(cc1OC)C(=O)N1CCC[C@H]1C=N2" , report its measured GI50.
# output 2000

# input Given the entry "COc1cc(/C=C/C(=O)N2CCOCC2)ccc1OCCCCCOc1cc2c(cc1OC)C(=O)N1CCC[C@H]1C=N2" , report its measured GI50.
# output 150

# input Given the entry "COc1cc(/C=C/C(=O)N2CCN(C(=O)c3cc(OC)c(OC)c(OC)c3)CC2)ccc1OCCCCCCOc1cc2c(cc1OC)C(=O)N1CCC[C@H]1C=N2" , report its measured GI50.
# output 1900

# input Given the entry "COc1cc(/C=C/C(=O)N2CCN(C(=O)c3cc(OC)c(OC)c(OC)c3)CC2)ccc1OCCCCCOc1cc2c(cc1OC)C(=O)N1CCC[C@H]1C=N2" , report its measured GI50.
# output 120

# input Given the entry "COc1cc2c(cc1O)N=C[C@@H]1CCCN1C2=O" , report its measured GI50.
# output 170

# input Given the entry COc1cccc2c1C(=O)c1c(O)c3c(c(O)c1C2=O)C[C@@](O)(C(=O)CO)C[C@@H]3O[C@H]1C[C@H](N)[C@H](O)[C@H](C)O1 [DOXORUBICIN HYDROCHLORIDE] , report its measured GI50.
# output 130

# input Given the entry "COc1cc(/C=C/C(=O)N2CCN(C(=O)c3cc(OC)c(OC)c(OC)c3)CC2)ccc1OCCCCOc1cc2c(cc1OC)C(=O)N1CCC[C@H]1C=N2" , report its measured GI50.
# output 150

###

Answer each item with its documented GI50.
Tested on: MCF7
assay-notes: Cytotoxicity against human MCF7 cells after 48 hrs by SRB assay
Type: functional
measurement-setup: MCF7, 48 h
Numbers only here, please. The scale is nM.

# input Given the entry "COc1cc(/C=C/C(=O)N2CCOCC2)ccc1OCCCCCCOc1cc2c(cc1OC)C(=O)N1CCC[C@H]1C=N2" , report its measured GI50.
# output 150

# input Given the entry "COc1cc2c(cc1O)N=C[C@@H]1CCCN1C2=O" , report its measured GI50.
# output 170

# input Given the entry "COc1cc(/C=C/C(=O)N2CCN(C(=O)/C=C/c3ccc(OCCCCCCOc4cc5c(cc4OC)C(=O)N4CCC[C@H]4C=N5)c(OC)c3)CC2)ccc1OCCCCCCOc1cc2c(cc1OC)C(=O)N1CCC[C@H]1C=N2" , report its measured GI50.
# output 1900

###

System: PC-3
assay-notes: Cytotoxicity against human PC3 cells after 48 hrs by SRB assay
Type: functional
measurement-setup: PC-3, 48 h
Counter-ions that a name gives are not always drawn.
Answer each item with its documented GI50.
Numbers only here, please. The scale is µM.

# input Given the entry "COc1cc(/C=C/C(=O)N2CCOCC2)ccc1OCCCOc1cc2c(cc1OC)C(=O)N1CCC[C@H]1C=N2" , report its measured GI50.
# output 0.13

# input Given the entry "COc1cc(/C=C/C(=O)N2CCOCC2)ccc1OCCCCCCOc1cc2c(cc1OC)C(=O)N1CCC[C@H]1C=N2" , report its measured GI50.
# output 0.17

# input Given the entry COc1cccc2c1C(=O)c1c(O)c3c(c(O)c1C2=O)C[C@@](O)(C(=O)CO)C[C@@H]3O[C@H]1C[C@H](N)[C@H](O)[C@H](C)O1 [DOXORUBICIN HYDROCHLORIDE] , report its measured GI50.
# output 0.16

# input Given the entry "COc1cc(/C=C/C(=O)N2CCN(C(=O)c3cc(OC)c(OC)c(OC)c3)CC2)ccc1OCCCOc1cc2c(cc1OC)C(=O)N1CCC[C@H]1C=N2" , report its measured GI50.
# output 0.73

# input Given the entry "COc1cc(/C=C/C(=O)N2CCN(C(=O)c3cc(OC)c(OC)c(OC)c3)CC2)ccc1OCCCCCOc1cc2c(cc1OC)C(=O)N1CCC[C@H]1C=N2" , report its measured GI50.
# output 0.14

# input Given the entry "COc1cc(/C=C/C(=O)N2CCN(C(=O)/C=C/c3ccc(OCCCCCCOc4cc5c(cc4OC)C(=O)N4CCC[C@H]4C=N5)c(OC)c3)CC2)ccc1OCCCCCCOc1cc2c(cc1OC)C(=O)N1CCC[C@H]1C=N2" , report its measured GI50.
# output 0.15

# input Given the entry "COc1cc(/C=C/C(=O)N2CCOCC2)ccc1OCCCCOc1cc2c(cc1OC)C(=O)N1CCC[C@H]1C=N2" , report its measured GI50.
# output 0.14

# input Given the entry "COc1cc2c(cc1O)N=C[C@@H]1CCCN1C2=O" , report its measured GI50.
# output 0.2

# input Given the entry "COc1cc(/C=C/C(=O)N2CCN(C(=O)/C=C/c3ccc(OCCCCOc4cc5c(cc4OC)C(=O)N4CCC[C@H]4C=N5)c(OC)c3)CC2)ccc1OCCCCOc1cc2c(cc1OC)C(=O)N1CCC[C@H]1C=N2" , report its measured GI50.
# output 0.16

# input Given the entry "COc1cc(/C=C/C(=O)N2CCN(C(=O)/C=C/c3ccc(OCCCOc4cc5c(cc4OC)C(=O)N4CCC[C@H]4C=N5)c(OC)c3)CC2)ccc1OCCCOc1cc2c(cc1OC)C(=O)N1CCC[C@H]1C=N2" , report its measured GI50.
# output 0.15

# input Given the entry "COc1cc(/C=C/C(=O)N2CCN(C(=O)c3cc(OC)c(OC)c(OC)c3)CC2)ccc1OCCCCCCOc1cc2c(cc1OC)C(=O)N1CCC[C@H]1C=N2" , report its measured GI50.
# output 1.9

###

Test system: MCF7
assay-notes: Cytotoxicity against human MCF7 cells after 48 hrs by SRB assay
Format: functional
measurement-setup: MCF7, 48 h
Counter-ions that a name gives are not always drawn.
Answer each item with its documented GI50.

# input Given the entry COc1cccc2c1C(=O)c1c(O)c3c(c(O)c1C2=O)C[C@@](O)(C(=O)CO)C[C@@H]3O[C@H]1C[C@H](N)[C@H](O)[C@H](C)O1 [DOXORUBICIN HYDROCHLORIDE] , report its measured GI50.
# output < 100 nM

# input Given the entry "COc1cc(/C=C/C(=O)N2CCOCC2)ccc1OCCCCCOc1cc2c(cc1OC)C(=O)N1CCC[C@H]1C=N2" , report its measured GI50.
# output < 100 nM

# input Given the entry "COc1cc(/C=C/C(=O)N2CCN(C(=O)/C=C/c3ccc(OCCCOc4cc5c(cc4OC)C(=O)N4CCC[C@H]4C=N5)c(OC)c3)CC2)ccc1OCCCOc1cc2c(cc1OC)C(=O)N1CCC[C@H]1C=N2" , report its measured GI50.
# output < 100 nM

###

System: PC-3
assay-notes: Cytotoxicity against human PC3 cells after 48 hrs by SRB assay
Type: functional
measurement-setup: PC-3, 48 h
value-kind: GI50

# input Given the entry "COc1cc(/C=C/C(=O)N2CCOCC2)ccc1OCCCCCOc1cc2c(cc1OC)C(=O)N1CCC[C@H]1C=N2" , report its measured GI50.
# output < 100 nM

# input Given the entry "COc1cc(/C=C/C(=O)N2CCN(C(=O)c3cc(OC)c(OC)c(OC)c3)CC2)ccc1OCCCCOc1cc2c(cc1OC)C(=O)N1CCC[C@H]1C=N2" , report its measured GI50.
# output < 100 nM

# input Given the entry "COc1cc(/C=C/C(=O)N2CCN(C(=O)/C=C/c3ccc(OCCCCCOc4cc5c(cc4OC)C(=O)N4CCC[C@H]4C=N5)c(OC)c3)CC2)ccc1OCCCCCOc1cc2c(cc1OC)C(=O)N1CCC[C@H]1C=N2" , report its measured GI50.
# output < 100 nM
